Test system: HCT116;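 further: Luminescence-based viability readout, five doses per compound, normalized against on-plate DMSO and empty-well controls, followed by dose-response curve fitting for every drug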
Assay: efficacy (fitted maximal change in viability relative to DMSO control); higher = less cytotoxic (negative = loss of viability)
Settings: 48 h
outcomeMeasure: efficacy (%)

1) CC[C@@]1(O)C[C@H](O[C@H]2C[C@H](N(C)C)[C@H](O[C@H]3C[C@H](O)[C@H](O[C@H]4CCC(=O)[C@H](C)O4)[C@H](C)O3)[C@H](C)O2)c2c(cc3c(c2O)C(=O)c2c(O)cccc2C3=O)[C@H]1C(=O)OC [Aclarubicin]; -89.2
2) CN1CCCN=C1/C=C/c1cccs1 [PYRANTEL PAMOATE]; -47
3) O=C1NC(=O)/C(=C/c2cccc(C(F)(F)F)c2)S1 [SMI-4a]; -22.5
